Measured TGI of individual entries
tested on: HOP-92 NSCLC; test: NCI tumour cell line growth inhibition, 48 h

Completed entries (count: 5):
CCOC(=O)c1oc2ccc(OC)c3c2c1CCC3	> 100 µM
CC1(CCC2C=CCC2)CCCNC1=S (stereo unspecified)	> 10 µM
COc1cc(OC)c(/C=C2\N=C(C)N(Nc3nnc(NN4C(=O)/C(=C/c5c(OC)cc(OC)cc5OC)N=C4C)c4ccccc34)C2=O)c(OC)c1	> 100 µM
CC12CCC(C(=O)OC1=O)C(C)(C)O2 (stereo unspecified)	> 100 µM
Cc1ccc(N2C(=O)C3c4[nH]c5ccccc5c4C4CCC(C(C)(C)C)CC4C3C2=O)cc1 (stereo unspecified)	32.9 µM

We next turn to a different molecule, shown below.
IN: Find the recorded TGI belonging to COc1ccc(NC(=O)CC(=O)N2N=C(C)C(N=Nc3ccc(S(=O)(=O)c4ccc(N=NC5C(=O)N(C(=O)CC(=O)Nc6ccc(OC)cc6)N=C5C)cc4)cc3)C2=O)cc1 (stereo unspecified) and report it.
OUT: > 100 µM

----------
Measured TGI of individual entries
tested on: TK-10 renal; assay: NCI tumour cell line growth inhibition, 48 h

Completed entries (count: 4):
O=C1c2c(c3c4ccccc4[nH]c3c3ccc4ccccc4c23)C(=O)N1CCN1CCCCC1	> 100 µM
C=CCOC1OC(CO[Si](C)(C)C(C)(C)C)C(OCc2ccccc2)C(OCc2ccccc2)C1OCc1ccccc1 (stereo not given)	> 100 µM
CN(C)c1ccc(/C=C\c2cccc[n+]2C)cc1	> 100 µM
CCC1C(c2cc(OC)c(OC)c(OC)c2)c2cc3c(cc2OC1N1CCCC1)OCO3 (stereo not given)	40.3 µM

We next turn to a different compound, shown below.
IN: Find the recorded TGI belonging to C=C1COC(/C=C(\C)CC/C=C(\C)CCl)C1 (stereo not given) and report it.
OUT: > 100 µM

----------
system: OVCAR-3 ovarian; test: NCI tumour cell line growth inhibition, 48 h
Test readout: TGI

Completed entries (count: 5):
Cc1ccc(NC(=O)/C=C/c2ccccc2)c(C(N)=O)c1	6.68 µM
O=c1cc(-c2cccc(Cl)c2)[nH]c2ncccc12	0.957 µM
O=C1C=C(Br)c2c(-c3ccccc3)oc3cccc1c23	> 100 µM
CC(C)(C)c1ccc(OCCCCCCN2CCNCC2)cc1	20.8 µM
[N-]=[N+]=Nc1c(-c2ccccc2)c(Cl)nc2ccccc12	> 100 µM

IN: Find the recorded TGI belonging to O=C(Cn1c2c(c3ccccc31)CCCC2)NC1CCCCC1 and report it.
OUT: > 100 µM

IN: Find the recorded TGI belonging to Nn1c(-c2ccccc2Cl)nc2ccccc2c1=O and report it.
OUT: > 100 µM

----------
test system: EKVX NSCLC; assay: NCI tumour cell line growth inhibition, 48 h; in the data active = GI50 below about 0.43 µM; inactive = the rest
Would you mind answering with one of these outcomes? Y for active, N for inactive

CC1=C(CCC(C)N(C)Cc2ccc(OCCCN3CCCC3)cc2)C(C)(C)CCC1 (centres undefined)	N

IN: Which outcome was entered for the compound CC(C)CC(CC1=CCC2CC1C2(C)C)C1=C(O)C(C)(C)C(=O)C(C)(C)C1=O (centres undefined) in this test?
OUT: Y

----------
tested on: HCT-116 colon; test: NCI tumour cell line growth inhibition, 48 h; in the data active means GI50 below about 0.43 µM; inactive means the rest
Would you mind answering with one of these outcomes? true (1) (active), false (0) (inactive)

Here are 3 compounds together with their reported answers.
CN(C)CCCN1c2ccccc2CCc2ccc(Cl)cc21	false (0)
CC(C)(C)c1ccc(OCCCCCCN2CCNCC2)cc1	false (0)
O[C@H]1CO[C@H]2[C@@H]1OC[C@@H]2Oc1ccc(Nc2ccnc(Nc3ccc(O[C@H]4CO[C@H]5[C@@H]4OC[C@@H]5O)c(Cl)c3)n2)cc1Cl	false (0)

IN: Which outcome was entered for the compound Clc1cc(Cl)c(OCC#CI)cc1Cl in this test?
OUT: false (0)

IN: Which outcome was entered for the compound COc1ccc2cc(-c3ccoc(=O)c3-c3cc(OC)c(OC)c(OC)c3)ccc2c1 in this test?
OUT: true (1)

IN: Which outcome was entered for the compound O=C1c2ccccc2-c2c1c1ccc([N+](=O)[O-])cc1c(=O)n2CCCBr in this test?
OUT: false (0)

IN: Which outcome was entered for the compound COc1cccc(C=Nc2cc(C)ccn2)c1O.COc1cccc(C=Nc2cc(C)ccn2)c1O.[Cu] in this test?
OUT: false (0)

IN: Which outcome was entered for the compound COc1ccc(-c2n[nH]nc2-c2cc(OC)c3c(c2OC)OCO3)cc1 in this test?
OUT: true (1)

IN: Which outcome was entered for the compound N=C(N)c1ccc(N2CCCN(c3ccc(C(=N)N)cc3)CC2)cc1 in this test?
OUT: false (0)

IN: Which outcome was entered for the compound CN(C)c1ccc2c(c1)Sc1cc(N(C)C)ccc1N2C(=O)c1ccccc1 in this test?
OUT: false (0)

IN: Which outcome was entered for the compound O=C(/C(=C/c1ccccc1)CN1CCCCC1)c1ccccc1 in this test?
OUT: false (0)

IN: Which outcome was entered for the compound COc1ccc(-c2cc(-c3ccccc3)nc(SCCCC(=O)NO)n2)cc1 in this test?
OUT: false (0)

IN: Which outcome was entered for the compound c1ccc2c(c1)c(NCCCCN1CCCCC1)cc1c3ccccc3c(NCCCCN3CCCCC3)cc21 in this test?
OUT: false (0)

IN: Which outcome was entered for the compound C=C1CC[C@@H]2[C@](C)(COC(C)=O)[C@@H](O)CC[C@@]2(C)[C@@H]1COc1ccc2ccc(=O)oc2c1 in this test?
OUT: false (0)

IN: Which outcome was entered for the compound O=C(c1ccccc1)C(CN1CCOCC1)c1ccccc1 (stereo not given) in this test?
OUT: false (0)

IN: Which outcome was entered for the compound CC(CN1CCN(CCOCCO)CC1)CN1c2ccccc2Sc2ccc(Cl)cc21 (stereo not given) in this test?
OUT: false (0)

IN: Which outcome was entered for the compound Cc1c2cc[n+](CCN3CCCCC3)cc2c(C)c2c1[nH]c1ccc(O)cc12 in this test?
OUT: false (0)

IN: Which outcome was entered for the compound O=C1C(=O)c2c(nc3ccc(Cl)cn23)-c2ccccc21 in this test?
OUT: true (1)

IN: Which outcome was entered for the compound COC(=O)Cn1c2c(c3c(O)cccc31)C(=O)c1ccccc1-2 in this test?
OUT: false (0)

IN: Which outcome was entered for the compound CCN=C1C=CC(=C(c2ccc(N)cc2)c2ccc(N(CC)CC)c(C)c2)C=C1 in this test?
OUT: true (1)

----------
tested on: DU-145 prostate; assay: NCI tumour cell line growth inhibition, 48 h
Test readout: TGI

CCC(NC(C)c1ccccc1)C(O)c1ccc(OCc2ccccc2)c(OCc2ccccc2)c1 (centres undefined)	32.1 µM
COc1cccc(NC(=O)c2sc3nc4c(cc3c2N)CN(Cc2ccccc2)CC4)c1	22.2 µM
CC(C)(C)c1ccc(OCCCCCCN2CCNCC2)cc1	23.2 µM
COC(=O)C(Cc1ccccc1)NC(=O)NC(=O)NC(=O)CI (centres undefined)	25.3 µM
Cc1cc(C)c(C2=NOC(c3ccccc3)(c3cc(=O)n(-c4ccccc4)s3)O2)c(C)c1 (centres undefined)	> 100 µM

IN: Find the recorded TGI belonging to O=[N+]([O-])c1cccc(-c2nc3sccn3c2-c2ccnc(NCCCNS(=O)(=O)c3cccc(F)c3)n2)c1 and report it.
OUT: 12.9 µM

IN: Find the recorded TGI belonging to COc1ccc(-c2cc(-c3ccccc3)nc(SCCCC(=O)NO)n2)cc1 and report it.
OUT: 9.58 µM

IN: Find the recorded TGI belonging to COc1ccc(NC(=O)/C(=N\NC(=O)C[n+]2ccccc2)c2c(O)c3ccc(O)cc3oc2=O)c([N+](=O)[O-])c1 and report it.
OUT: > 100 µM

IN: Find the recorded TGI belonging to COc1c2c(cc3oc(C)cc(=O)c13)OC(=N)C(C(N)=O)C2CC(=O)c1ccc(N)cc1 (centres undefined) and report it.
OUT: > 100 µM

----------
system: UO-31 renal; experiment: NCI tumour cell line growth inhibition, 48 h; in the data active = GI50 below about 0.43 µM; inactive = the rest
Would you mind answering with one of these outcomes? 1 (active), -1 (inactive)

IN: Which outcome was entered for the compound CN(C)c1ccc2c(c1)Sc1cc(N(C)C)ccc1N2C(=O)c1ccccc1 in this test?
OUT: -1

IN: Which outcome was entered for the compound COc1cccc(NC(=O)c2sc3nc4c(cc3c2N)CN(Cc2ccccc2)CC4)c1 in this test?
OUT: -1

IN: Which outcome was entered for the compound O=C(c1ccccc1)C(CN1CCOCC1)c1ccccc1 (stereo not given) in this test?
OUT: -1

IN: Which outcome was entered for the compound COc1cc2c(c(OC)c1OC)-c1ncc3cc(OC)c(OC)c(OC)c3c1C2 in this test?
OUT: -1

IN: Which outcome was entered for the compound CCN(C(=O)N1CCN(c2cc3c(cc2F)c(=O)c(C(=O)O)cn3C2CC2)CC1)c1nc(-c2ccc(C)cc2)cs1 in this test?
OUT: 1
